Assay: solubility of the active compound (I) in water
Assay type: physicochemical
reported_endpoint: solubility

For this compound ( O=C(NC[C@H]1CN(c2ccc(N3CCOCC3=O)cc2)C(=O)O1)c1ccc(Cl)s1 ), measured solubility is ~7 µg/mL

Source: patent US20140010876A1
